- assay: growth inhibitors of H69AR lung tumor, primary screen, human, duplicate replicates (AID 580);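 also: 100% = mean luminescence of untreated wells and 0% = no signal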
- measurement.conditions: H69AR lung tumor cells viability, ATP luminescence, 72 h; at 10 µM; stronger effect = lower value
assay.readout: viability (%)
Lab book: enter the figure in %, no units written.

Q: Write down viability measured for item CC1CCN(C(=O)CN2C(=O)C(C)(C)Oc3ccc(C(=O)NC4CCCC4)cc32)CC1
Ans: 93.4

Q: Write down viability measured for item Cc1ccc(Cl)cc1NC(=O)CSc1nnc(C)n1-c1ccccc1
Ans: 86.6

Q: Write down viability measured for item CC(C)Cn1c(N)c(C(=O)COC(=O)c2ccc3c(c2)OCCO3)c(=O)n(C)c1=O
Ans: 91.8

Q: Write down viability measured for item COCCn1c(SCc2csc(-c3ccccc3)n2)nc2ccccc21
Ans: 88.5

Q: Write down viability measured for item COc1ccc(CCn2c(C)cc(C(=O)CSc3nnnn3C)c2C)cc1
Ans: 101

Q: Write down viability measured for item CCn1nnc(NC(=O)c2cc3ccccc3o2)n1
Ans: 101

Q: Write down viability measured for item COc1ccc(CCNC(=O)C2CC(=O)N(c3ccccc3)C2)cc1OC (stereo unspecified)
Ans: 91.5

Q: Write down viability measured for item CC(=O)Oc1cc(C(C)C)c(OCCN(C)C)cc1C
Ans: 99

Q: Write down viability measured for item O=C(c1ccc2c(c1)OCO2)N1CCCN(C(=O)c2ccc3c(c2)OCO3)CC1
Ans: 97.9

Q: Write down viability measured for item O=C(c1c(F)cccc1F)N(Cc1ccccn1)C1CCCC1
Ans: 93.6

Q: Write down viability measured for item CC(=O)Nn1c(C)nnc1-n1nc(C)cc1C
Ans: 97.8

---

- assay: SK-BR-3 cell growth inhibitors, pilot screen, 24 h, human (AID 572);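 also: compound exposure lasted between 18 and 24 h rather than exactly 24 h; 100% = carrier-treated control wells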
- measurement.conditions: SK-BR-3 viability, CellTiter-Glo luminescence, at 10 µM, stronger effect = lower value
assay.readout: viability (%)
Lab book: enter the figure in %, no units written.

Q: Write down viability measured for item CC1/C(=N/O)C(CN(C)C)C2CC1C2(C)C (stereo not given)
Ans: 107

Q: Write down viability measured for item O=C(COC(=O)C1CC1)c1c[nH]c2ccccc12
Ans: 93.5

Q: Write down viability measured for item Cc1ccc(-c2cc(C(=O)O)n[nH]2)o1
Ans: 95.5

Q: Write down viability measured for item O=C(Nc1ccccc1)N(O)c1ccc(Cl)cc1
Ans: 93

Q: Write down viability measured for item CCC(=NC(C)c1ccccc1)c1c(O)n(C)c(=O)n(C)c1=O (stereo not given)
Ans: 94

Q: Write down viability measured for item CC(=O)c1cnc2cc(-c3ccccc3)nn2c1C
Ans: 91.5

Q: Write down viability measured for item Cc1ccc(SCc2[nH]nc3c2C(c2ccc(C)o2)C(C#N)=C(N)O3)cc1 (stereo not given)
Ans: 91

Q: Write down viability measured for item COC(=O)COc1nc(C)c(Br)c(OC)n1
Ans: 96.5

Q: Write down viability measured for item O=C(Nc1ccc(N2CCCCC2)cc1)c1ccc(F)cc1
Ans: 84

Q: Write down viability measured for item Cn1c(=O)c2c(nc(CN3CCCCC3)n2CCc2ccccc2)n(C)c1=O
Ans: 87

Q: Write down viability measured for item O=c1c2cc(N3CCOCC3)ccc2[nH]c(=S)n1CCCN1CCCC1
Ans: 89

Q: Write down viability measured for item CC1CN(c2nc(-c3ccccc3)nc3ccccc23)CC(C)O1 (stereo not given)
Ans: 91

Q: Write down viability measured for item O=c1n(CCCN2CCN(c3cccc(Cl)c3)CC2)nc2ccccn12
Ans: 81

Q: Write down viability measured for item CCOC(=O)N1CCN(c2c(N3CCc4ccccc4C3)c(=O)c2=O)CC1
Ans: 87

Q: Write down viability measured for item CCC(C)Nc1nc2c(c(=O)n(C)c(=O)n2C)n1Cc1ccc(F)cc1 (stereo not given)
Ans: 90.5

Q: Write down viability measured for item O=C(O)c1ccc2c(c1)N(Cc1ccccc1F)C(=O)c1ccccc1S2=O (stereo not given)
Ans: 96

Q: Write down viability measured for item Cc1cccc(-n2c(O)c(C=Nc3ccccc3N)c(=O)[nH]c2=O)c1
Ans: 108

Q: Write down viability measured for item CC(=O)O[C@H]1CSC[C@H]1NC(=O)c1ccccc1
Ans: 98.5

Q: Write down viability measured for item COc1ccc(C2CNC(=O)C2)cc1OC1CCCC1 (stereo not given)
Ans: 115

Q: Write down viability measured for item CN(C(=O)COc1cc(=O)n(C)c2ccccc12)c1ccc(Br)cc1
Ans: 100

Q: Write down viability measured for item COc1ccc(S(=O)(=O)C(C#N)c2nc3ccccc3nc2N2CCCC(C)C2)cc1 (stereo not given)
Ans: 112

Q: Write down viability measured for item CCC(NC(C)C)C(O)c1ccc(O)c2[nH]c(=O)ccc12 (stereo not given)
Ans: 108

Q: Write down viability measured for item COc1cccc(CNc2nc3nc(C)c(Cl)c(C)n3n2)c1
Ans: 86.5

Q: Write down viability measured for item CCC1(CC)NC(=O)NC1=O
Ans: 110

Q: Write down viability measured for item CCC(Sc1nc(-c2ccccc2)c(C#N)c(=O)[nH]1)C(=O)Nc1cc(C)on1 (stereo not given)
Ans: 90.5

Q: Write down viability measured for item CCOc1ccc(-c2noc(-c3ccncc3)n2)cc1OCC
Ans: 99

Q: Write down viability measured for item O=C(c1ccc2c(c1)OCO2)N1CCCN(C(=O)c2ccc3c(c2)OCO3)CC1
Ans: 89.5

Q: Write down viability measured for item C[C@H](NC(=O)NCc1cccs1)C(=O)O
Ans: 104

Q: Write down viability measured for item Cc1csc(NC(=O)c2cc3c(s2)-c2ccccc2OC3)n1
Ans: 91

Q: Write down viability measured for item COc1cccc(-n2nnnc2SCC(=O)NCc2ccco2)c1
Ans: 117

Q: Write down viability measured for item CCOC(=O)CNC(=O)Nc1nnc(-c2ccc(OCC)cc2)o1
Ans: 99

Q: Write down viability measured for item COc1ccc(C2C(C(=O)c3sc(C)nc3C)=C(O)C(=O)N2CCN(C)C)cc1OC (stereo not given)
Ans: 108

Q: Write down viability measured for item CCOC(=O)c1sc(NC(=O)C2CC=CCC2C(=O)O)nc1C (stereo not given)
Ans: 105

Q: Write down viability measured for item COc1ccc(C(=O)NCc2nnc(SCC(=O)Nc3cc(C)cc(C)c3)o2)cc1OC
Ans: 89.5

Q: Write down viability measured for item O=C(O)c1cccnc1Nc1cccc(C(F)(F)F)c1
Ans: 100

Q: Write down viability measured for item O=C(COC(=O)CSc1nnc(-c2ccc(Cl)cc2)o1)NCc1ccc2c(c1)OCO2
Ans: 98

Q: Write down viability measured for item CCC(=O)O[C@@H]1CC(=O)O[C@H](C)CC=CC=C[C@@H](O)[C@H](C)C[C@H](CC=O)[C@H](O[C@H]2O[C@H](C)[C@@H](O[C@H]3C[C@@](C)(O)[C@@H](OC(=O)CC)[C@H](C)O3)[C@H](N(C)C)[C@H]2O)[C@H]1OC
Ans: 93.5

Q: Write down viability measured for item COc1ccc(C)cc1-n1nnnc1SCC(=O)Nc1cc(C)on1
Ans: 95

Q: Write down viability measured for item Cc1cc(=O)n(CC(C)C)c(O)c1C#N
Ans: 106

Q: Write down viability measured for item COc1cccc(OC)c1C(=O)N1CCN(S(=O)(=O)c2ccccc2)CC1
Ans: 79.5

Q: Write down viability measured for item CS(=O)(=O)C1=C(O)C(=O)N(c2ccccc2)C1c1ccccc1 (stereo not given)
Ans: 109

Q: Write down viability measured for item COC(=O)c1cc(S(=O)(=O)N2CCC(C)CC2)ccc1F
Ans: 71

Q: Write down viability measured for item c1cncc(-c2nnc(SCCSc3nnc(-c4cccnc4)o3)o2)c1
Ans: 99.5

Q: Write down viability measured for item COc1ccc(-n2nnnc2-c2cccc(OC)c2)cc1
Ans: 102

Q: Write down viability measured for item CN(C)CCOC(c1ccccc1)c1ccccc1 (tested in a mixture with another compound)
Ans: 93.5
